assay: NCI Yeast Anticancer Drug Screen. Data for the rad50 strain (AID 155);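 note: 0% = growth of vehicle-only cultures of the same strain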; details: S. cerevisiae rad50 strain growth inhibition; at 50.0 µM; hits give high values
The panel holds about 79,000 compounds, 15% with a hit somewhere; the sample as a whole holds those more often.
measuredQuantity: growth inhibition (%)
All answers are understood in %, so give the number only.

Quick one: growth inhibition for CCOC(=O)CCC(C)=O ?
22.8

Quick one: growth inhibition for CNC(=S)c1ccc(Cl)cc1 ?
12.3

Quick one: growth inhibition for CCCCCCC(C)OC(=O)CCl (stereo not drawn) ?
-0.55

====

assay: NCI Yeast Anticancer Drug Screen. Data for the mlh1 rad18 strain (AID 175); conditions: S. cerevisiae mlh1 rad18 strain growth inhibition; at 50.0 µM; hits give high values
The panel holds about 79,000 compounds, 15% with a hit somewhere; the sample as a whole holds those more often.
measuredQuantity: growth inhibition (%)
All answers are understood in %, so give the number only.

Quick one: growth inhibition for CC(=O)Nc1nc2nccn2c(=O)[nH]1 ?
2

Quick one: growth inhibition for CN(C)Cc1nsc(N(C)C)n1 ?
-13.2

Quick one: growth inhibition for CCCCCCCCCCCCCCCC(=O)OCC1OC(OC2(COC(=O)CCCCCCCCCCCCCCC)OC(COC(=O)CCCCCCCCCCCCCCC)C(OC(=O)CCCCCCCCCCCCCCC)C2OC(=O)CCCCCCCCCCCCCCC)C(OC(=O)CCCCCCCCCCCCCCC)C(OC(=O)CCCCCCCCCCCCCCC)C1OC(=O)CCCCCCCCCCCCCCC (configuration not stated) ?
-6

Quick one: growth inhibition for COc1ccc(C2=NOC3COC4C=CC=CC4OCC23)cc1 (configuration not stated) ?
-18.6

Quick one: growth inhibition for O=C1CS(=O)(=O)CN1c1ccc(Cl)c(Cl)c1 ?
3.6

Quick one: growth inhibition for CSc1ccccc1N1C(=O)CSC1=S ?
22.2

Quick one: growth inhibition for CC(=O)C1(SCCO)CCC2C3CCC4=CC(=O)CCC4(C)C3CCC21C (configuration not stated) ?
77.2

Quick one: growth inhibition for C(=N/N=C(/C(=N/N=C/c1ccccc1)c1ccccc1)c1ccccc1)\c1ccccc1 ?
5.45

Quick one: growth inhibition for CCCC(C)NC(=O)c1ccc(OCC)cc1 (configuration not stated) ?
-3.85

Quick one: growth inhibition for CC1OC1P(=O)(O)O (configuration not stated) ?
-6.55

Quick one: growth inhibition for CCCCCCCCCCCCCCCCCC(=O)Oc1c(C(C)(C)C)cc([N+](=O)[O-])c(C)c1[N+](=O)[O-] ?
98.2

Quick one: growth inhibition for C=CCc1cc(N)ccc1O ?
7.9

Quick one: growth inhibition for CCOC(=O)CNC(=O)C(CCSCc1ccccc1)NC(=O)OCc1ccccc1 (configuration not stated) ?
15.2

Quick one: growth inhibition for C/C(N=NS(=O)(=O)c1ccccc1)=C1\C=CC=CN1O ?
-9

Quick one: growth inhibition for O=C(Nc1cccc(Cl)c1)Nc1ccc(Sc2ccc(Cl)cc2)o1 ?
69.8

Quick one: growth inhibition for CC1=Nc2nc3ccccc3n2C(C)(C)C1 ?
-34.1

Quick one: growth inhibition for Cc1ccc(S(=O)(=O)N2CCC(N)=N2)cc1 ?
-4.85

Quick one: growth inhibition for C[C@]1(CO)CCC[C@@]2(C)C1CC[C@H]1CC3C[C@]12CC[C@]3(C)O (some centres not stated) ?
54.3

Quick one: growth inhibition for CCC(=O)C(C)C1(C(=O)OC)NC(=S)NC(=O)C1C#N (configuration not stated) ?
-6.1

Quick one: growth inhibition for CCCCN(CCOc1ccnc(=O)[nH]1)CC(C)C ?
-7.7

Quick one: growth inhibition for CCCCC(CC)(SC(CC)C(N)=O)C(N)=O (configuration not stated) ?
-5

Quick one: growth inhibition for O=C([O][Sb]([O]C(=O)C(Br)Br)([c]1ccccc1)([c]1ccccc1)[c]1ccccc1)C(Br)Br ?
36.6
